test: APR_HepG2_P-H2AX_24hr: Apredica 24-hour HepG2 Assay for H2AX Phosphorylation (AID 2282920); conditions: high-content imaging, actives raise or lower the signal
Calls of active or inactive are those of the source. How the source made its calls: active means hit-call score of the fitted dose curve at least 0.9, where 1 is the maximum; inactive means score below 0.9.
Answer with one of the outcomes active, inactive

{"Molecule": "O=C(O)C(F)(F)C(F)(F)C(F)(F)C(F)(F)C(F)(F)C(F)(F)C(F)(F)C(F)(F)F", "Class Name": "inactive"}
{"Molecule": "CCOCCOC(C)=O", "Class Name": "inactive"}
{"Molecule": "Cc1ccccc1CO[C@@H]1C[C@@]2(C(C)C)CC[C@]1(C)O2", "Class Name": "inactive"}

Given CCC(C)c1cc([N+](=O)[O-])cc([N+](=O)[O-])c1O (centres undefined) , state the outcome it received in this test. active

Given Clc1ccc(C(Cl)(Cl)Cl)cc1 , state the outcome it received in this test. inactive

----------
read-out: E-selectin (Homo sapiens) (UniProt P16581); experiment: BSK_3C_Eselectin: BioMAP Diversity Plus: 3C Assay for Eselectin Biomarker Activity (AID 2283015); details: primary human endothelial cells (HUVEC); actives raise or lower the signal
Sequence (P16581 whole entry, looked up): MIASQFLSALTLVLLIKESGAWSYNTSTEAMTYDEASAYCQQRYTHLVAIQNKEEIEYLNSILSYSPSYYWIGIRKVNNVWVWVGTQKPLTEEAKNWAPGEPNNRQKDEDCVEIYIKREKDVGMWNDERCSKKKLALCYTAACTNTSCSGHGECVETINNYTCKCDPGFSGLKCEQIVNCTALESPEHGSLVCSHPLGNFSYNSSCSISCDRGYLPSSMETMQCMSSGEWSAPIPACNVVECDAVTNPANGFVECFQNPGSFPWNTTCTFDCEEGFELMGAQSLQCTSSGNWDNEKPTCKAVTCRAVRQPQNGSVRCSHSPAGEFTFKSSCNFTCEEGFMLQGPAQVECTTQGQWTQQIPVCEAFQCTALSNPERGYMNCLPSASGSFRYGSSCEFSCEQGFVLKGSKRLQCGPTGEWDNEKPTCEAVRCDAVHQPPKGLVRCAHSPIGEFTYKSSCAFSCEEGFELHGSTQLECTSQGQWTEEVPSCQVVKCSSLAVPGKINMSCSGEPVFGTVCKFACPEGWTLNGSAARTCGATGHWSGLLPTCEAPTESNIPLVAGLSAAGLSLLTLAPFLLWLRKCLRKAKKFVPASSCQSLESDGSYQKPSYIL
Calls of active or inactive are those of the source. Rule for the calls: active = hit-call score of the fitted dose curve at least 0.9, where 1 is the maximum; inactive = score below 0.9.
Readout Name: AC50

// solved cases for AC50 follow
{"Compound": "CN(C)c1nc(=O)n(C2CCCCC2)c(=O)n1C", "AC50": "inactive"}
{"Compound": "Cc1cccc(C)c1N", "AC50": "inactive"}
{"Compound": "Cc1cccc([N+](=O)[O-])c1", "AC50": "inactive"}
{"Compound": "CCOP(=S)(OCC)SCSC(C)(C)C", "AC50": "inactive"}
{"Compound": "CCCCCCCCCc1ccc(O)cc1", "AC50": "14.3 µM (active)"}
{"Compound": "CC(C)(O)C(=O)Nc1ccc([N+](=O)[O-])c(C(F)(F)F)c1", "AC50": "inactive"}
{"Compound": "C1CC2OC2CC1C1CO1 (stereo not given)", "AC50": "inactive"}
{"Compound": "Cc1cc2c3c(c1)C(c1ccccc1)=N[C@@H](NC(=O)c1ccncc1)C(=O)N3CC2", "AC50": "inactive"}

Look up AC50 for this compound: CCC(C)(c1ccc(O)cc1)c1ccc(O)cc1 inactive

Look up AC50 for this compound: Nc1ccc(-c2ccc(N)cc2)cc1 inactive

Look up AC50 for this compound: CCOC(=O)C(O)(c1ccc(Cl)cc1)c1ccc(Cl)cc1 32 µM (active)

----------
read-out: Cyclin D1 (CCND1), CCND1 (gene 595); experiment: LTEA_HepaRG_CCND1: Life Technologies and Expression Analysis (LTEA) Assay for Cyclin D1 (CCND1) using HepaRG (AID 2283451); conditions: mRNA level, 48 h; actives raise or lower the signal
Activity calls are given as the source filed them. The calls were made as follows: active = hit-call score of the fitted dose curve at least 0.9, where 1 is the maximum; inactive = score below 0.9.
Answer with one of the outcomes active, inactive

Given CC#Cc1cc(C)nc(Nc2ccccc2)n1 , state the outcome it received in this test. active

Given Cc1cc2c3c(c1)C(c1ccccc1)=N[C@@H](NC(=O)c1ccncc1)C(=O)N3CC2 , state the outcome it received in this test. inactive

Given CC(c1ccc(O)cc1)(c1ccc(O)cc1)c1ccc(O)cc1 , state the outcome it received in this test. active

Given NS(=O)(=O)C(F)(F)C(F)(F)C(F)(F)C(F)(F)C(F)(F)C(F)(F)C(F)(F)C(F)(F)F , state the outcome it received in this test. active

Given Nc1ccc(-c2ccc(N)cc2)cc1 , state the outcome it received in this test. inactive

Given ClC(Cl)=C(c1ccc(Cl)cc1)c1ccc(Cl)cc1 , state the outcome it received in this test. inactive
